Below, each entry is listed with its recorded Max Fall BP (Maximum Fall in Mean Arterial pressure).
System: spontaneously hypertensive rats
Test: Spontaneously Hypertensive Rat (SHR) test, arterial pressure monitored via aortic cannula
Type: in vivo
Conditions: SH rats, dose 30 mg/kg of body weight p.o.; salt form tested per footnotes
Counter-ions that a name gives are not always drawn. Marks after values point to notes of the source that are not given here.

Compound	Measured
COc1ccc(/C=C\c2ccccc2)c(CC(C)NCCc2ccc(OC)c(OC)c2)c1 (centres unmarked) [Example 4c, Hydrochloride]	21 (30) mm of Hg
COc1ccc(/C=C/c2ccccc2)c(CC(C)NCCc2ccc(OC)c(OC)c2)c1 (centres unmarked) [Example 8b, Hydrochloride]	77 (30) mm of Hg
COc1ccc(/C=C\c2ccccc2)c(CCC(C)N(C)CCc2ccc(OC)c(OC)c2)c1 (centres unmarked)	17 (30) mm of Hg
COc1ccc(/C=C/c2ccccc2)c(CCCN(C)CCc2ccc(OC)c(OC)c2)c1	16 (30) mm of Hg
COc1cc(CCNC(C)Cc2cc(OC)ccc2/C=C/c2ccccc2)cc(OC)c1 (centres unmarked)	53 (30)* mm of Hg
COc1ccc(/C=C/c2ccccc2)c(CCC(C)N(C)CCc2ccc(OC)c(OC)c2)c1 (centres unmarked) [Example 5, Hydrochloride]	43 (30) mm of Hg
COc1ccc(/C=C\c2ccccc2)c(CC(C)NCCc2c(Cl)cccc2Cl)c1 (centres unmarked)	18 (30) mm of Hg

Data request: I'd like to know its Max Fall BP (Maximum Fall in Mean Arterial pressure). The compound in question is COc1ccc(/C=C/c2ccccc2)c(CC(C)NCCc2ccc(Cl)c(Cl)c2)c1 (centres unmarked) [Example 9, Hydrochloride]
Data returned: 90 (30) mm of Hg

// data source = patent EP0250254A1
